Item-by-item account of half-life at 1 µM
Assay: Half life in monkey hepatocytes at 1 uM
Assay type: ADME, cell-based, Macaca mulatta, Hepatocyte
Conditions: rhesus monkey
Answer format: numeric, h implied, no suffix.

These solved cases illustrate the format of a correct answer.
# molecule_smiles, half-life at 1 µM, h
rows = [
    ("COc1c([C@@H]2O[C@H](CO)[C@@H](F)[C@H](O)[C@H]2O)cc(Cc2ccc3c(c2)OCCO3)c2c1CCO2", 2.2),
    ("Cc1ncc2n1-c1ccc(Cl)cc1C(c1ccccc1F)=NC2", 1.4),
]

Query: Which half-life at 1 µM value is on record for O=C(O)Cc1ccccc1Nc1c(Cl)cccc1Cl ?
Response: 1
